Kindly supply the reported self-cleavage values for the records listed here.
B1: CPEB3 Ribozyme (parent)
chain: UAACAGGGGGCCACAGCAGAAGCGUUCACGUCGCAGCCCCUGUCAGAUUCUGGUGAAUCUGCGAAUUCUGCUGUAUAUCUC

- Variants of: B1
- Experiment notes: self-cleavage, relative activity (ratio to wild type); higher = more cleavage; in vitro, sequencing
Note: the reply should be a number with no unit written.

Please report the measured self-cleavage for C12U A77G 1.19

Report self-cleavage for U58A A77G 0.38

Provide self-cleavage value for the following variant: "G33C" 0.23

Report measured self-cleavage; entry is U31A G52A 0.69

Entry C38U U43C needs its self-cleavage filled in; supply it. 0.28

// fetch self-cleavage given entry U49C U78G 0.39

Report self-cleavage for A15U C17U 0.21

Annotate the variant A45C U66C with its measured self-cleavage. 0.31

// Input: A3G C29U . Output its self-cleavage only. 0.59

Indicate its recorded self-cleavage; the variant in question is G10C U66C 0.15

Please indicate self-cleavage recorded for G30A U76A 0.13

Give reported self-cleavage value for A13C A15U 1

Please supply the value of reported self-cleavage for the item C23A U72C 0.41

Find the measured self-cleavage of G16A U78C and report it. 0.59

Supply measured self-cleavage of A20C U25A in your reply. 0.31

Name the recorded self-cleavage of the item A47U G52A in your answer. 0.86

State its self-cleavage: G7A U80C 0.29

Fill in reported self-cleavage for this entry: G8U U51C 0.08

Complete the entry with self-cleavage for C17U G36A 0.17

Please look at this variant and report its self-cleavage: U41A U78C 0.26

Consider the variant A56U U76G . State its measured self-cleavage. 0.89

# return recorded self-cleavage for entry C11G C81U 0.86

Consider the variant C29U G52A . State its measured self-cleavage. 0.46

Note down self-cleavage recorded for U41C G52U 1.03

// fetch self-cleavage given entry C11G U51C 0.41

Tell me self-cleavage reported for A57G U69C 0.48

Fill in self-cleavage for record U51C A65G 0.56

Name the recorded self-cleavage of the item C34U U69A in your answer. 0.13

Answer with reported self-cleavage of U54C A64C 0.46

Query self-cleavage for U1A A15G 0.72

// Input: U31A G33U . Output its self-cleavage only. 0.13

For the variant C34G U49C , give its reported self-cleavage. 0.07

Determine from records and report self-cleavage for A56G G70C 0.21

Tell me measured self-cleavage for G42U U49C please. 0.02

Provide one value: measured self-cleavage of A18U C38U 0.31

Give self-cleavage for C23A G24A 0.13

Please list self-cleavage recorded for the variant A15U A21U 0.19

Give the reported self-cleavage for this variant. U41C A45C 0.53

Could you please provide reported self-cleavage for C12A A18U ? Thanks! 0.48

Hello, please tell me recorded self-cleavage for this one: U74A U78C 1.23

Read off the recorded self-cleavage for U54C U58A 0.33

# return recorded self-cleavage for input "A57C" 0.48

Supply recorded self-cleavage for U48A C71A here. 0.2

State its self-cleavage for this variant: A35G U74A 1.33

Specify self-cleavage for U25G A57G and stop. 0.16

For the variant C40U A65U , give its reported self-cleavage. 0.37

Item G6A G7A : provide self-cleavage 0.09

In one line, give reported self-cleavage of the entry G8A U41C . 0.32

Assign self-cleavage to the following record: A2C A65G 0.46

Check the records and state self-cleavage for U26C G36U 0.25

Output self-cleavage of U31C G52A 1.06

Check the records and state self-cleavage for A15U U67C 0.22

Give the measured self-cleavage for G6U G8A 0.23

In one line, give reported self-cleavage of the entry C11A U48C . 0.32

Return self-cleavage (reported value) for this variant: G53A U54C 0.92

Given U60C U74G , respond with its self-cleavage. 0.66

Supply recorded self-cleavage for C14U A65U here. 0.34

Item G30A U51A : provide self-cleavage 0.15

Quote self-cleavage reported for U51G U69C please. 0.62

Give reported self-cleavage value for C32U A77C 0.15

Consider the variant A45U G46A . State its measured self-cleavage. 0.41

Query self-cleavage for U31A A47G 0.54

Fill in reported self-cleavage for this entry: A35U U67A 0.24

Respond only with self-cleavage recorded for U54A A57U 1.04

Entry C37A A77U needs its self-cleavage filled in; supply it. 0.28

For the variant "C62G" , give its measured self-cleavage value. 0.3

Note self-cleavage for the variant shown: G42A C44G 0.11

Identify the reported self-cleavage for the following entry. U1C G7C 0.44

Annotate the variant A3C A18G with its measured self-cleavage. 0.64

Please supply the value of reported self-cleavage for the item U48C U60A 0.26

Please supply the value of reported self-cleavage for the item G9A A20C 0.39

Given the variant A20G U26C , write its reported self-cleavage. 0.37

Annotate the variant A35G C62U with its measured self-cleavage. 0.34

Read off the recorded self-cleavage for A3U G16A 0.43

Using the record for U1C G73U , state its measured self-cleavage. 1.08

Indicate the recorded self-cleavage value for this variant: A77G U80A 1.18

Fill in reported self-cleavage for this entry: A20U U67C 0.22

Identify measured self-cleavage corresponding to C11A U54C 0.17

State, in one line, measured self-cleavage of A15U A18C 0.35

Given A56U U78C , respond with its self-cleavage. 0.61

Consider the variant A35U U66A and give its recorded self-cleavage. 0.34

Give the value of self-cleavage reported for the following: "U78C" 1.02

Given the variant U31C G63U , write its reported self-cleavage. 0.8

Give the reported self-cleavage for this variant. C14U U54G 1.16

Specify measured self-cleavage for U31C U76C . 0.88

Tell us which self-cleavage value is on record for A28G U51G 0.45

Please report the measured self-cleavage for A5C U43A 1.13

Identify measured self-cleavage corresponding to C23G U80A 0.47

For the variant U54G A56U , give its reported self-cleavage. 0.31

Report self-cleavage for U25C C59A 0.16

Fill in reported self-cleavage for this entry: G6U U26C 0.38
